- Target of assay: DNA topoisomerase 1 (Homo sapiens)
- Test summary: Inhibition of recombinant human Top1 expressed in Saccharomyces cerevisiae null strain RS190 assessed as decrease in relaxation of supercoiled plasmid DNA at 100 uM using supercoiled plasmid DNA as substrate incubated for 3 min by red staining based DNA relaxation assay relative to camptothecin
Quantity measured: inhibition
Answer shape: numeric part, then the unit.

These solved cases illustrate the format of a correct answer.
>>> observed_result("Fc1ccc2c(c1)[C@H]1Nc3cccnc3[C@@H](c3ccccc3)[C@@H]1CO2 (relative stereo)")
"1%"
>>> observed_result("O=C1Oc2ccccc2[C@H]2Nc3cccnc3[C@@H](c3ccccc3)[C@H]12 (relative stereo)")
"5%"
>>> observed_result("O=C1Oc2ccccc2[C@H]2Nc3ccc(Br)nc3[C@@H](c3ccccc3)[C@H]12 (relative stereo)")
"4%"

Inquiry: What value of inhibition has been recorded for this entry: COc1ccc2nc3c(c(-c4ccccc4)c2n1)c(=O)oc1ccccc13
Reply text: 12%

Inquiry: Please look up its inhibition: Fc1ccc2c(c1)-c1nc3cccnc3c(-c3ccccc3)c1CO2
Reply text: 2%

Inquiry: Data request, read-out inhibition, for Fc1ccc(-c2c3c(nc4cccnc24)-c2ccccc2OC3)cc1F
Reply text: 6%

Inquiry: Which inhibition value is on record for COc1ccc2c(n1)[C@@H](c1ccccc1)[C@@H]1COc3ccccc3[C@H]1N2 (relative stereo) ?
Reply text: 12%

Inquiry: Quick one: inhibition of COc1ccc(-c2c3c(nc4cccnc24)-c2ccccc2OC3)cc1 ?
Reply text: 29%

Inquiry: Name the recorded inhibition for Brc1ccc2nc3c(c(-c4ccccc4)c2n1)COc1ccccc1-3 .
Reply text: 4%
